- TARGET_UNDER_TEST: Adrenergic receptor alpha (Rattus norvegicus) (UniProt P15823+P23944+P43140+P22086+P19328+P22909)
- ASSAY_NOTES: Alpha adrenergic activity was evaluated as concentration (iv) which increases the arterial pressure by 20 mmHg in the pithed rat
- Type: functional, organism-based
- CONDITION_SUMMARY: Artery
Decision: C20 >= 30 µg/kg yields True, all other cases yield False.

Prompt line: # bool: C20 of COc1ccc2c(c1)CCC1(CN=CN1)C2 (centres undefined) >= 30 µg/kg
Response line: True

Prompt line: # bool: C20 of Clc1cccc2c1CC1(CC2)CN=CN1 (centres undefined) >= 30 µg/kg
Response line: False

Prompt line: # bool: C20 of COc1ccc2c(c1OC)CCC1(CN=CN1)C2 (centres undefined) >= 30 µg/kg
Response line: True

Prompt line: # bool: C20 of Cc1ccc(C)c2c1CCC1(CN=CN1)C2 (centres undefined) >= 30 µg/kg
Response line: False

Prompt line: # bool: C20 of COc1cc(C)cc2c1CCC1(CN=CN1)C2 (centres undefined) >= 30 µg/kg
Response line: False

Prompt line: # bool: C20 of COc1ccc2c(c1)CC1(CC2)CN=CN1 (centres undefined) >= 30 µg/kg
Response line: False

Prompt line: # bool: C20 of Fc1cc(F)c2c(c1)CC1(CC2)CN=CN1 (centres undefined) >= 30 µg/kg
Response line: True

Prompt line: # bool: C20 of C1=NC2(CCc3ccccc3C2)CO1 (centres undefined) >= 30 µg/kg
Response line: True

Prompt line: # bool: C20 of NC1=NC2(CCc3ccccc3C2)CO1 (centres undefined) >= 30 µg/kg
Response line: False

Prompt line: # bool: C20 of Cc1cc(C)c2c(c1)CC1(CC2)CN=CN1 (centres undefined) >= 30 µg/kg
Response line: False

Prompt line: # bool: C20 of COc1ccc(SC)c2c1CC1(CC2)CN=CN1 (centres undefined) >= 30 µg/kg
Response line: False

Prompt line: # bool: C20 of COc1cc2c(cc1OC)CC1(CC2)CN=CN1 (centres undefined) >= 30 µg/kg
Response line: True

Prompt line: # bool: C20 of Fc1cccc2c1CC1(CC2)CN=CN1 (centres undefined) >= 30 µg/kg
Response line: False

Prompt line: # bool: C20 of CC(C)c1ccc2c(c1)CC1(CC2)CN=CN1 (centres undefined) >= 30 µg/kg
Response line: True

Prompt line: # bool: C20 of Oc1cccc2c1CC1(CC2)CN=CN1 (centres undefined) >= 30 µg/kg
Response line: False

Prompt line: # bool: C20 of CN1C=NC2(CCc3ccccc3C2)C1 (centres undefined) >= 30 µg/kg
Response line: True

Prompt line: # bool: C20 of CC1=NC2(CCc3ccccc3C2)CN1 (centres undefined) >= 30 µg/kg
Response line: True

Prompt line: # bool: C20 of NC1=NC2(CCc3cccc(Cl)c3C2)CO1 (centres undefined) >= 30 µg/kg
Response line: False

Prompt line: # bool: C20 of Clc1ccc2c(c1)CCC1(CN=CN1)C2 (centres undefined) >= 30 µg/kg
Response line: False

Prompt line: # bool: C20 of Clc1cc(Cl)c2c(c1)CCC1(CN=CN1)C2 (centres undefined) >= 30 µg/kg
Response line: False

Prompt line: # bool: C20 of COc1cccc2c1CC1(CC2)CN=CN1 (centres undefined) >= 30 µg/kg
Response line: False

Prompt line: # bool: C20 of Clc1ccc2c(c1)CC1(CC2)CN=CN1 (centres undefined) >= 30 µg/kg
Response line: False

Prompt line: # bool: C20 of Clc1cc2c(cc1Cl)CC1(CC2)CN=CN1 (centres undefined) >= 30 µg/kg
Response line: True

Prompt line: # bool: C20 of C1=NCC2(CCc3cc4c(cc3C2)CCC4)N1 (centres undefined) >= 30 µg/kg
Response line: True
